These measurements were taken from paper PMC4267740.

# method.notes: Plasma and brain exposure in satellite lesioned rats
# Format: in vivo, rat
# test.context: rat, plasma, ip, 3 mg/kg, administered alone; ip 3 mg/kg; 90 min after dosing; mean ± SD, 3 animals (Co-101244 n = 2); read-out: Plasma concentration
measured.attribute: concentration at 90 min (ng/mL)
Answers are plain numbers, in ng/mL.

**Query** Query concentration at 90 min for `Nc1nc2c(cnn2CCc2ccccc2)c2nc(-c3ccco3)nn12`
**Result** 97.2

----------
# method.notes: Plasma and brain exposure in satellite lesioned rats
# Type: in vivo, rat
# test.context: rat, brain, ip, 3 mg/kg, administered in combination Sch-58261+Co-101244; both ip 3 mg/kg; 90 min after dosing; expressed per g tissue; mean ± SD, 3 animals; read-out: Brain concentration
measured.attribute: concentration at 90 min

**Query** Query concentration at 90 min for `Nc1nc2c(cnn2CCc2ccccc2)c2nc(-c3ccco3)nn12`
**Result** 264 ng/mL

----------
# method.notes: Plasma and brain exposure in satellite lesioned rats
# Assay type: in vivo, rat
# test.context: rat, brain, po, 30 mg/kg, administered alone; oral 30 mg/kg; 60 min after dosing; expressed per g tissue; mean ± SD, 3 animals; read-out: Brain concentration
# Experimental: Satellite lesioned rats (400–450 g) were anesthetized with isoflurane and sacrificed by exsanguination. Blood samples were collected in EDTA centrifuged 10 min at 3000 rpm at 4°C to obtain plasma and stored at −20°C prior the analysis. […] Compounds were analyzed on an API5000 mass spectrometer (ABSciex, Framingham, MA, USA.) equipped with a turbo ion spray source and interfaced with an Agilent 1290 Infinity LC system (Agilent Technologies, Waldbroon, Germany). […]
I'd be grateful if you could share measured concentration at 60 min for these entries.
One number for each entry, in µg/mL.

compound | units.of.measure | concentration at 60 min
O=C(Nc1ccc2[nH]c(=O)oc2c1)C(=O)N1CCC(Cc2ccc(F)cc2)CC1 [Radiprodil] | µg/mL | 2.63

**Query** Query concentration at 60 min for COc1ccc(N2CCOCC2)c2sc(NC(=O)N3CCC(C)(O)CC3)nc12 [Tozadenant]
**Result** 0.18

----------
# method.notes: Plasma and brain exposure in satellite lesioned rats
# Assay type: in vivo, rat
# test.context: rat, brain, ip, 3 mg/kg, administered alone; ip 3 mg/kg; 90 min after dosing; expressed per g tissue; mean ± SD, 3 animals (Co-101244 n = 2); read-out: Brain concentration
measured.attribute: concentration at 90 min (ng/mL)
Give bare numbers, in ng/mL.

**Query** Query concentration at 90 min for `Nc1nc2c(cnn2CCc2ccccc2)c2nc(-c3ccco3)nn12`
**Result** 246

----------
# method.notes: Plasma and brain exposure in satellite lesioned rats
# Assay type: in vivo, rat
# test.context: rat, plasma, ip, 3 mg/kg, administered in combination Sch-58261+Co-101244; both ip 3 mg/kg; 90 min after dosing; mean ± SD, 3 animals; read-out: Plasma concentration
measured.attribute: concentration at 90 min
Note: a bare number is incomplete; add the unit.

**Query** Query concentration at 90 min for `Nc1nc2c(cnn2CCc2ccccc2)c2nc(-c3ccco3)nn12`
**Result** 112 ng/mL

----------
# method.notes: Plasma and brain exposure in satellite lesioned rats
# Format: in vivo, rat
# test.context: rat, brain, po, 30 mg/kg, administered in combination Tozadenant + Radiprodil; both oral 30 mg/kg; 60 min after dosing; expressed per g tissue; mean ± SD, 3 animals; read-out: Brain concentration
measured.attribute: concentration at 60 min (ng/mL)
One number for each entry, in ng/mL.

molecular.string | units.of.measure | numeric.value
O=C(Nc1ccc2[nH]c(=O)oc2c1)C(=O)N1CCC(Cc2ccc(F)cc2)CC1 | ng/mL | 2590

Consider now this further molecule.
**Query** Query concentration at 60 min for `COc1ccc(N2CCOCC2)c2sc(NC(=O)N3CCC(C)(O)CC3)nc12`
**Result** 110
